Measured melting point, listed per entry.

As a guide, the following entries are already answered.
Q: Report melting point for COc1c(C(O)C#Cc2ccc(C(=O)O)cc2)cc(C(C)(C)C)cc1C(C)(C)C (stereo not shown) please.
Ans: 208 to 209 °C

Q: Report melting point for CC1(C)CCSc2cccc(C(O)C#Cc3ccc(C(=O)O)cc3)c21 (stereo not shown) please.
Ans: 198 °C

Q: Report melting point for COc1c(C(O)C#Cc2ccc(C(=O)O)cc2)cc(-c2ccccc2)cc1C(C)(C)C (stereo not shown) please.
Ans: 165 to 167 °C

Q: Report melting point for COCOc1c(C(O)C#Cc2ccc(C(=O)O)cc2)cc(C(C)(C)C)cc1C(C)(C)C (stereo not shown) please.
Ans: 197 °C

Q: Report melting point for `CC1(C)CCSc2c(CC#Cc3ccc(C(=O)O)c(O)c3)cccc21` please.
Ans: 190 to 191 °C

More entries:
Q: Report melting point for `CCOC(=O)c1ccc(C#CCc2cc(C(C)(C)C)cc(C(C)(C)C)c2O)cc1` please.
Ans: 113 to 115 °C

Q: Report melting point for COc1c(C(C#Cc2ccc(C(=O)O)cc2)OC)cc(C(C)(C)C)cc1C(C)(C)C (stereo not shown) please.
Ans: 162 to 164 °C

Q: Report melting point for `COc1c(CC#Cc2ccc(C(=O)O)cc2)cc(C(C)(C)C)cc1C(C)(C)C` please.
Ans: 237 to 239 °C

Q: Report melting point for `COc1c(CC#Cc2ccc(C(=O)O)cc2)cc(-c2ccccc2)cc1C(C)(C)C` please.
Ans: 229 to 231 °C

Q: Report melting point for CC1(C)CCC(C)(C)c2c(C(O)C#Cc3ccc(C(=O)O)cc3)cc(-c3ccccc3)cc21 (stereo not shown) please.
Ans: 250 °C
